Values were extracted from PubChem BioAssay (NCATS).

Test: Quantitative High-Throughput drug screen in 47 multiple myeloma cell lines against the NCATS MIPE library collection: ARP1_JJKsccF8 cell viability assay (AID 1918928; further: nearly all actives have a fitted effect of over 40% in size;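 on viability: 100% = DMSO only wells and 0% = medium only wells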)
Conditions: ARP1 myeloma cells viability, CellTiter-Glo ATP, 48 h; series mostly up to 45.8 µM
Records with an inconclusive call do not appear. Calls of active or inactive are those of the source. The call rests on the fitted dose curve; in most records, active means well fitted cell-killing curve with a large enough effect; inconclusive means small, poorly fitted or top-dose-only effect, or effect the other way; inactive means no such curve, though single readings can be large or run the other way.
Write down the outcome that applies. Available outcomes: active, inactive

Past entries and their recorded results:
-- ask GET /call?item= `CCOC(=O)[C@@H](N)CCC(=O)N[C@@H](CSCc1ccccc1)C(=O)N[C@@H](C(=O)OCC)c1ccccc1` returns the recorded outcome of this test.
-- reply inactive

-- ask Give the logged outcome of this assay for the following compound: `O=C(NCCCCN1CCOCC1)c1cc2ccccc2o1`
-- reply inactive

-- ask What did this assay record as the result for `COc1c(C)cnc(Cn2cnc3c(Cl)nc(N)nc32)c1C` ?
-- reply active

Further cases:
-- ask Please share the test call associated with `CCCCC(C)(C)[C@H](O)C=C[C@H]1[C@H](O)CC(=O)[C@H]1CC=CCCCC(=O)O` .
-- reply active

###

Assay: qHTS of pediatric cancer cell lines to identify multiple opportunities for drug repurposing: Primary screen for BT-12 cells (AID 1347101); further: nearly all actives have a fitted effect of over 25% in size
Conditions: BT-12 viability, CellTiter-Glo luminescence, 48 h; series mostly up to 57.3 µM
Method: Drug repurposing or repositioning has been offered as a strategy for drug development in oncology programs. […] [1] Shen, M et al. Quantitative high-throughput phenotypic screening of pediatric cancer cell lines identifies multiple opportunities for drug repurposing. […] Cells were assayed in growth media at a density of 500-1,000 cells/well. […] After a 15 min incubation at room temperature, samples were analyzed for luminescence intensity using a ViewLux High-throughput CCD imager equipped with clear filters.
Inconclusive results are not listed. Activity calls are given as the source filed them. Calls follow the shape of the dose curve; as a rule, active = well fitted cell-killing curve with a large enough effect; inconclusive = small, poorly fitted or top-dose-only effect; inactive = flat fitted curve, though single readings scatter.
Hi! Could you answer with just one of these? T (active), F (inactive)

Record excerpt, results attached:
-- ask Look up the recorded call for CNC1CCC(N(Cc2cccc(-c3ccncc3)c2)C(=O)c2sc3ccccc3c2Cl)CC1 (stereo unspecified) in this test.
-- reply T

-- ask Please share the test call associated with `COc1cc2ncn(-c3cc(OCc4ccccc4S(C)(=O)=O)c(C#N)s3)c2cc1OC` .
-- reply F

-- ask For `CC1(COc2ccc3c(c2)ncn3-c2ccc3cccc(N4CCC(N)CC4)c3n2)COC1` , which call appears in the assay record?
-- reply T

Others:
-- ask Assay outcome for CC(NCCc1ccc(O)cc1)C(O)c1ccc(O)cc1 (stereo unspecified) : what was it?
-- reply F

-- ask Could you kindly confirm the outcome this assay logged for `CN(C)CCN(Cc1ccc(Cl)cc1)c1ccccn1` ?
-- reply F

-- ask Recorded test call requested for `Clc1ccc(C2(c3ccc(-c4cn[nH]c4)cc3)CCNCC2)cc1`
-- reply F

-- ask What outcome does the record of this test show for `CN[C@@H]1CN(c2ccc3c(=O)c(C(=O)O)cn(-c4nccs4)c3n2)C[C@@H]1OC` ?
-- reply T

-- ask Which outcome was assigned to `CNC(=O)c1cc(Oc2ccc(NC(=O)Nc3ccc(Cl)c(C(F)(F)F)c3)c(F)c2)ccn1` in this test?
-- reply T

-- ask Could you check what this test reported for `CN(C)CCOc1ccc(-c2nc(-c3ccc4c(c3)CCC4=NO)c(-c3ccncc3)[nH]2)cc1` ?
-- reply T

-- ask # lookup: test call for `Cc1ccc2c(c1)c1c(n2CCc2ccc(C)nc2)CCN(C)C1`
-- reply F

-- ask For Cc1cc(C(C)Nc2ccccc2)c2nc(N3CCOCC3)cc(=O)n2c1 (stereo unspecified) , what call appears in the results of this test?
-- reply F

-- ask Name the outcome recorded for `CC(C)(F)C[C@H](N[C@@H](c1ccc(-c2ccc(S(C)(=O)=O)cc2)cc1)C(F)(F)F)C(=O)NC1(C#N)CC1` in the assay.
-- reply F

-- ask Look up the recorded call for `CC[C@H](NC(=O)[C@H](C)NC)C(=O)N1C[C@@H](O)C[C@H]1Cc1c(-c2[nH]c3cc(F)ccc3c2C[C@H]2C[C@H](O)CN2C(=O)[C@H](CC)NC(=O)[C@H](C)NC)[nH]c2cc(F)ccc12` in this test.
-- reply T

-- ask // return assay outcome for `N[C@@H](CC(=O)N1CCn2c(nnc2C(F)(F)F)C1)Cc1cc(F)c(F)cc1F`
-- reply F

-- ask Which result was noted for this molecule in the test: `O=C(O)Cc1cccc(OCCCN(Cc2cccc(C(F)(F)F)c2Cl)CC(c2ccccc2)c2ccccc2)c1`
-- reply T

###

Experiment: Quantitative High-Throughput drug screen in 47 multiple myeloma cell lines against the NCATS MIPE library collection: EJM_DSMZ cell viability assay (AID 1918926; further: nearly all actives have a fitted effect of over 30% in size)
Conditions: EJM myeloma cell viability, CellTiter-Glo ATP, 48 h; series mostly up to 45.8 µM
Inconclusive results are not listed. Activity calls are given as the source filed them. Calls follow the shape of the dose curve; as a rule, active = well fitted cell-killing curve with a large enough effect; inconclusive = small, poorly fitted or top-dose-only effect, or effect the other way; inactive = no such curve, though single readings can be large or run the other way.
Your reply should match one of these outcome classes. class 1 for active, class 0 for inactive

These recorded examples may help you get a feel for the data.
-- ask Field: outcome | Entry: `CC[C@H](C)n1cc(C)c2c(C(=O)NCc3c(C)cc(C)[nH]c3=O)cc(-c3ccc(N4CCNCC4)nc3)cc21`
-- reply class 1

-- ask Tell me the assay call for O[C@@H](COc1cccc2ncccc12)CN1CCN(C2c3ccccc3[C@@H]3[C@H](c4ccccc42)C3(F)F)CC1 (some centres not stated) please.
-- reply class 1

-- ask Give the logged outcome of this assay for the following compound: `O=c1[nH]nc(OCCCc2ccc(Cl)cc2)c(NCc2cccnc2)c1Br`
-- reply class 1

-- ask Which outcome was assigned to `CS(=O)(=O)c1ccc(C2=C(c3ccccc3)C(=O)OC2)cc1` in this test?
-- reply class 0

-- ask I'd appreciate the recorded outcome for `COc1ccc2ccc(=O)oc2c1CC=C(C)C` from this test.
-- reply class 1

-- ask Test call, this compound: `COc1cc2c(cc1Cc1cccc(Cl)c1F)c(=O)c(C(=O)O)cn2[C@H](CO)C(C)C`
-- reply class 1

Next:
-- ask Dear colleague, could you share the recorded outcome for `CN(C)CCN(C)C(=O)c1ccc(NC(=O)Nc2ccc(-c3nc(N4CCOCC4)c4ccn(CC(F)(F)F)c4n3)cc2)cc1` when you have a moment?
-- reply class 1

###

Test: Quantitative High-Throughput drug screen in 47 multiple myeloma cell lines against the NCATS MIPE library collection: KMS12PE_JCRB cell viability assay (AID 1918972); further: nearly all actives have a fitted effect of over 30% in size; further: potency means the concentration at half of the fitted maximal effect;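 on viability: 100% = DMSO only wells and 0% = wells with media alone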
Settings: KMS12PE myeloma viability, CellTiter-Glo ATP, 48 h; series mostly up to 45.8 µM
Inconclusive results are not listed. Activity calls are given as the source filed them. Calls come from the whole dose curve; as a rule, active = well fitted cell-killing curve with a large enough effect; inconclusive = small, poorly fitted or top-dose-only effect, or effect the other way; inactive = no such curve, though single readings can be large or run the other way.
measured-parameter: Potency

Reference set (5 entries):
Lab book: Potency of CCCC1OC2C[C@@H]3[C@H]4CCC5=CC(=O)C=C[C@]5(C)[C@H]4C(O)C[C@]3(C)[C@]2(C(=O)CO)O1 (some centres not stated) noted as inactive

Summary for this compound, `Nc1[nH]nc2nnc(-c3c(-c4ccccc4)nn4ccccc34)cc12` : Potency is 2.35 µM (active)

Lab book: Potency of `O=S(=O)(O)c1ccc2cc(N=Nc3cc(S(=O)(=O)O)c4cccnc4c3O)ccc2c1` noted as inactive

What the record says about `CC(C)=CCCC(C)=CCCC(C)=CCCC(C)=CCCC(C)=CCCC(C)=CCCC(C)=CCCC(C)=CCCC(C)=CCO` : Potency is inactive

Value of Potency reported for the compound `CC[C@H](C=C[C@@H](C)[C@H]1CC[C@H]2[C@@H]3CC=C4C[C@@H](O)CC[C@]4(C)[C@@H]3CC[C@]12C)C(C)C` is inactive

More entries:
// sample `CCC=CC[C@H]1C(=O)CC[C@@H]1CC(=O)OC` , its Potency was inactive

The compound listed as Nc1ncnc2c1c(-c1cccc(OCc3ccccc3)c1)cn2C1CC(CN2CCC2)C1 (configuration not stated) shows Potency equal to 16.6 µM (active)

GET /value?item= `CN1CCN(c2cccc(Nc3nc4c(-c5ccc(S(C)(=O)=O)cc5)cccn4n3)c2)CC1` &field=Potency returns 0.833 µM (active)

###

Recorded measurements of Potency, one per entry
Assay: qHTS of pediatric cancer cell lines to identify multiple opportunities for drug repurposing: Confirmatory screen for SK-N-MC cells (AID 1347111);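 further: potency means the concentration at half of the fitted maximal effect; cells exposed to compound for 48 h before the readout; nearly all actives have a fitted effect of over 70% in size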
Settings: SK-N-MC cell viability; series mostly up to 45.9 µM
Results filed as inconclusive are left out. Active and inactive are the calls of the source. Calls follow the shape of the dose curve; as a rule, active = well fitted cell-killing curve with a large enough effect; inconclusive = small, poorly fitted or top-dose-only effect; inactive = no such curve, though single readings can be large or run the other way.

Consider the following illustrative entries.
The measured Potency associated with `Nc1ccc(-c2ccc3ncc4ccc(=O)n(-c5cccc(C(F)(F)F)c5)c4c3c2)cn1` reads 131 nM (active)

Record summary for `C[C@@H]1[C@H](O)[C@@H](C)C=CC=CC=CC=CC=CC=CC=C[C@H](O[C@@H]2O[C@H](C)[C@H](O)[C@H](N)[C@@H]2O)C[C@@H]2O[C@](O)(C[C@@H](O)C[C@@H](O)[C@H](O)CC[C@@H](O)C[C@@H](O)CC(=O)O[C@H]1C)C[C@H](O)[C@@H]2C(=O)O` : reported Potency = 10400 nM (active)

Input `COc1ccc2c(c1)c(C1=C(c3c[nH]c4ccccc34)C(=O)NC1=O)cn2CCCN(C)C` . Output Potency: 8270 nM (active)

The reported Potency of the compound `CN1N=C(N)c2cn([C@@H]3O[C@H](COP(=O)(O)O)[C@@H](O)[C@@H]3O)c3ncnc1c23` was 3690 nM (active)

Further cases:
The compound listed as `CC(C)(C)c1[nH]cnc1C=c1[nH]c(=O)c(=Cc2ccccc2)[nH]c1=O` shows Potency equal to 10.1 nM (active)

For `COc1cc([C@@H]2c3cc4c(cc3[C@@H](O[C@@H]3O[C@@H]5CO[C@@H](C)O[C@@H]5[C@H](O)[C@@H]3O)[C@H]3COC(=O)[C@H]23)OCO4)cc(OC)c1O` the compound record lists Potency as 1040 nM (active)
